// provenance: the RepoRT retention time repository (doi:10.1016/j.chroma.2019.01.023)

assay: RP, Phenomenex Kinetex C18, 150 × 2.1 mm, 1.7 µm, 30 °C, 0.3 mL/min, estimated dead time 1.1 min; A: water + 0.1% formic acid, pH 3; B: acetonitrile + 0.1% formic acid, pH 3; gradient (min/%B) 0/2 14/100 17/100 17.1/2 25/2; conditions: stereoisomer not certain
recordedMetric: LC retention time (min)

compound	LC retention time, min
Nc1ccn(C2CC(O)C(COP(=O)(O)O)O2)c(=O)n1 (centres undefined) [DEOXYCYTIDINE MONOPHOSPHATE]	1.4

[a] CCC(C(=O)O)C(=O)O [ETHYLMALONATE]
[b] NC(CCC(=O)NC(CS)C(=O)NCC(=O)O)C(=O)O (centres undefined)
[c] O=C(O)CCCCCCCCC(=O)O [SEBACATE]
Prompt: Task field, ranking: reported LC retention time, descending order. Dear reader, please state the labels in the requested order.
Completion: c, a, b
